These entries and their values trace back to patent US20180037651A1.

Recorded MFI, one value per entry.
Target: T1, human GPRC5D (human, UniProt Q9NZD1 1-345)
T1 construct: on transfected HEK293/RBL cells or endogenous on myeloma cells (H929, MM1R, OPM2, LP1, JIM3, patient plasma cells); also called G protein-coupled receptor class C group 5 member D; hGPRC5D
T1 sequence (Q9NZD1 whole entry): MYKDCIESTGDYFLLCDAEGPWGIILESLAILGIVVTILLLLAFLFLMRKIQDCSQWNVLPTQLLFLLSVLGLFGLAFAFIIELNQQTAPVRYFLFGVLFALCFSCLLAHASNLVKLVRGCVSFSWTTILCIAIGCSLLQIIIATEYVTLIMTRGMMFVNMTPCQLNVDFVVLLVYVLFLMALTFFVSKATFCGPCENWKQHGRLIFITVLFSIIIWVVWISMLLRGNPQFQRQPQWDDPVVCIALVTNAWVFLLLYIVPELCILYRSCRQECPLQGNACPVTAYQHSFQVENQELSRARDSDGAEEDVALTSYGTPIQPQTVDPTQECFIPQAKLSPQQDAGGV
Assay: FACS, human GPRC5D cells

Worked examples, 3 binders total:
GC5B472 (antibody, V domains shown, GC5B164 PTM variant; also called GC5H277) VH: EVQLVQSGAEVKKPGESLKISCKGSGYSFTSYVIGWVRQMPGKGLEWMGIIYPGASDTRYSPSFQGQVTISADKSISTAYLQWSSLKASDTAMYYCARVYSFGGRHKALFDYWGQGTLVTVSS VL: EIVLTQSPATLSLSPGERATLSCRASQSVSSYLAWYQQKPGQAPRLLIYDASNRATGIPARFSGSGSGTDFTLTISSLEPEDFAVYYCQQRSNWPLTFGQGTKVEIK; 1000 to 10000 mfi
GC5B502 (antibody, V domains shown, GC5B164 PTM variant; also called GC5H247) VH: EVQLVQSGAEVKKPGESLKISCKGSGYSFTSYWIGWVRQMPGKGLEWMGIIYPGSSDTRYSPSFQGQVTISADKSISTAYLQWSSLKASDTAMYYCARVYSFGGRHKALFDYWGQGTLVTVSS VL: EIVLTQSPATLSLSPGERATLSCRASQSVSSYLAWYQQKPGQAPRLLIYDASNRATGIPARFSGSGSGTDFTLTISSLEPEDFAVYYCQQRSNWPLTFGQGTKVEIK; > 10000 mfi
GC5B491 (antibody, V domains shown, GC5B164 PTM variant; also called GC5H258) VH: EVQLVQSGAEVKKPGESLKISCKGSGYSFTSYYIGWVRQMPGKGLEWMGIIYPGYSDTRYSPSFQGQVTISADKSISTAYLQWSSLKASDTAMYYCARVYSFGGRHKALFDYWGQGTLVTVSS VL: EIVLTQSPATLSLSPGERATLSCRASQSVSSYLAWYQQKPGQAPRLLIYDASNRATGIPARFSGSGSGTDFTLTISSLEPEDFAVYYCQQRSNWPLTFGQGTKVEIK; > 10000 mfi

Quick note, MFI for GC5B477 (antibody, V domains shown, GC5B164 PTM variant; also called GC5H272) VH: EVQLVQSGAEVKKPGESLKISCKGSGYSFTSYVIGWVRQMPGKGLEWMGIIYPGSSDTRYSPSFQGQVTISADKSISTAYLQWSSLKASDTAMYYCARVYSFGGRHKALFDYWGQGTLVTVSS VL: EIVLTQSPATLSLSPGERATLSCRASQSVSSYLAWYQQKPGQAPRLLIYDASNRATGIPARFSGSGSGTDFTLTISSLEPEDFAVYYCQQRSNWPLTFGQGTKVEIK landed at 1000 to 10000 mfi

Quick note, MFI for GC5B495 (antibody, V domains shown, GC5B164 PTM variant; also called GC5H254) VH: EVQLVQSGAEVKKPGESLKISCKGSGYSFTSYAIGWVRQMPGKGLEWMGIIYPGYSDTRYSPSFQGQVTISADKSISTAYLQWSSLKASDTAMYYCARVYSFGGRHKALFDYWGQGTLVTVSS VL: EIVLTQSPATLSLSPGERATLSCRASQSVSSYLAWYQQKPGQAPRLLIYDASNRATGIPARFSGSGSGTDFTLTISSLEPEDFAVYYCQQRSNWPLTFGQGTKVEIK landed at 1000 to 10000 mfi

Quick note, MFI for GC5B482 (antibody, V domains shown, GC5B164 PTM variant; also called GC5H267) VH: EVQLVQSGAEVKKPGESLKISCKGSGYSFTSYVIGWVRQMPGKGLEWMGIIYPGKSDTRYSPSFQGQVTISADKSISTAYLQWSSLKASDTAMYYCARVYSFGGRHKALFDYWGQGTLVTVSS VL: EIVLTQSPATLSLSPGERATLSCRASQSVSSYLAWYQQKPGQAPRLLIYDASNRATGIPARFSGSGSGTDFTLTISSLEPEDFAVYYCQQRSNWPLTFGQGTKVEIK landed at > 10000 mfi

Quick note, MFI for GC5B496 (antibody, V domains shown, GC5B164 PTM variant; also called GC5H253) VH: EVQLVQSGAEVKKPGESLKISCKGSGYSFTSYYIGWVRQMPGKGLEWMGIIYPGDSDTRYSPSFQGQVTISADKSISTAYLQWSSLKASDTAMYYCARVYSFGGRHKALFDYWGQGTLVTVSS VL: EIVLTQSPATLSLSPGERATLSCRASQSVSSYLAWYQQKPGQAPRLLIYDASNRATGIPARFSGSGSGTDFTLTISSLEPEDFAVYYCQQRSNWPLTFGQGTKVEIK landed at > 10000 mfi

Quick note, MFI for GC5B475 (antibody, V domains shown, GC5B164 PTM variant; also called GC5H274) VH: EVQLVQSGAEVKKPGESLKISCKGSGYSFTSYAIGWVRQMPGKGLEWMGIIYPGASDTRYSPSFQGQVTISADKSISTAYLQWSSLKASDTAMYYCARVYSFGGRHKALFDYWGQGTLVTVSS VL: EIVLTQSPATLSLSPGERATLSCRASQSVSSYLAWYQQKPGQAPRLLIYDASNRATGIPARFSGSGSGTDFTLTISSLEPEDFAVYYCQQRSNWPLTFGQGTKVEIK landed at 1000 to 10000 mfi

Quick note, MFI for GC5B492 (antibody, V domains shown, GC5B164 PTM variant; also called GC5H257) VH: EVQLVQSGAEVKKPGESLKISCKGSGYSFTSYVIGWVRQMPGKGLEWMGIIYPGYSDTRYSPSFQGQVTISADKSISTAYLQWSSLKASDTAMYYCARVYSFGGRHKALFDYWGQGTLVTVSS VL: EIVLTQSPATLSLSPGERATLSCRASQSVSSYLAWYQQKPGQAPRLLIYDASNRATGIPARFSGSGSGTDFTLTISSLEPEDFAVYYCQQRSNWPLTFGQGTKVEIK landed at > 10000 mfi

Quick note, MFI for GC5B479 (antibody, V domains shown, GC5B164 PTM variant; also called GC5H270) VH: EVQLVQSGAEVKKPGESLKISCKGSGYSFTSYGIGWVRQMPGKGLEWMGIIYPGSSDTRYSPSFQGQVTISADKSISTAYLQWSSLKASDTAMYYCARVYSFGGRHKALFDYWGQGTLVTVSS VL: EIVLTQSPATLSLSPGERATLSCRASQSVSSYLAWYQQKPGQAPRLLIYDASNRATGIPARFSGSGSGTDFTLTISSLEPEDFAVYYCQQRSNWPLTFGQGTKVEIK landed at 1000 to 10000 mfi
